# targetEntity: IKZF1 (Homo sapiens, UniProt Q13422+Q96SW2)
# Construct: endogenous in cells; host or cells: MM.1S (human multiple myeloma)
# Sequence (Q13422 whole entry): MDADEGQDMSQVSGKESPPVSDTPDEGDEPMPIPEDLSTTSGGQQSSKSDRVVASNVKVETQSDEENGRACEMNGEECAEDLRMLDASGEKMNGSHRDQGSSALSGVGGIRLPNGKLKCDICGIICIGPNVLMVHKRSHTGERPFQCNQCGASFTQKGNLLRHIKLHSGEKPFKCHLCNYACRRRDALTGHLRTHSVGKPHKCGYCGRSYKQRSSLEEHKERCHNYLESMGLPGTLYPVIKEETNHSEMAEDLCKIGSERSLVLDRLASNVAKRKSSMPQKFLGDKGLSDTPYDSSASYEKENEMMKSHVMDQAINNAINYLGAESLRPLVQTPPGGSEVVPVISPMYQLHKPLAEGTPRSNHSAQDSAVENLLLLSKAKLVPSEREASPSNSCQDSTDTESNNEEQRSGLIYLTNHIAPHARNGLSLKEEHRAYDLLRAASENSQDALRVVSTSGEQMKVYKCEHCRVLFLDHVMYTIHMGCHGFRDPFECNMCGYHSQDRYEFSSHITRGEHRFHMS
# Sequence (Q96SW2 whole entry): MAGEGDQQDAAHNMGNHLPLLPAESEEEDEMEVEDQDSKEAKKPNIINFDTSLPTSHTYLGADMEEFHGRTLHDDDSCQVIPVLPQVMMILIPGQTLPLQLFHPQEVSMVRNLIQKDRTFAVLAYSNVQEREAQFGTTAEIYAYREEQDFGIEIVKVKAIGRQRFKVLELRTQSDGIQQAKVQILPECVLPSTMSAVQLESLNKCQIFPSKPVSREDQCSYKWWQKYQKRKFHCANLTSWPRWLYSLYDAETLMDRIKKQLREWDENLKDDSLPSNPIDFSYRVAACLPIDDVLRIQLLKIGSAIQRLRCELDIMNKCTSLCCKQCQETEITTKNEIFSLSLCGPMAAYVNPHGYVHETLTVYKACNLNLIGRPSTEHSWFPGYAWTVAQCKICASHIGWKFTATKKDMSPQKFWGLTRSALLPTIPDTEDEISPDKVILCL
# Sequence (Q16531 whole entry partner): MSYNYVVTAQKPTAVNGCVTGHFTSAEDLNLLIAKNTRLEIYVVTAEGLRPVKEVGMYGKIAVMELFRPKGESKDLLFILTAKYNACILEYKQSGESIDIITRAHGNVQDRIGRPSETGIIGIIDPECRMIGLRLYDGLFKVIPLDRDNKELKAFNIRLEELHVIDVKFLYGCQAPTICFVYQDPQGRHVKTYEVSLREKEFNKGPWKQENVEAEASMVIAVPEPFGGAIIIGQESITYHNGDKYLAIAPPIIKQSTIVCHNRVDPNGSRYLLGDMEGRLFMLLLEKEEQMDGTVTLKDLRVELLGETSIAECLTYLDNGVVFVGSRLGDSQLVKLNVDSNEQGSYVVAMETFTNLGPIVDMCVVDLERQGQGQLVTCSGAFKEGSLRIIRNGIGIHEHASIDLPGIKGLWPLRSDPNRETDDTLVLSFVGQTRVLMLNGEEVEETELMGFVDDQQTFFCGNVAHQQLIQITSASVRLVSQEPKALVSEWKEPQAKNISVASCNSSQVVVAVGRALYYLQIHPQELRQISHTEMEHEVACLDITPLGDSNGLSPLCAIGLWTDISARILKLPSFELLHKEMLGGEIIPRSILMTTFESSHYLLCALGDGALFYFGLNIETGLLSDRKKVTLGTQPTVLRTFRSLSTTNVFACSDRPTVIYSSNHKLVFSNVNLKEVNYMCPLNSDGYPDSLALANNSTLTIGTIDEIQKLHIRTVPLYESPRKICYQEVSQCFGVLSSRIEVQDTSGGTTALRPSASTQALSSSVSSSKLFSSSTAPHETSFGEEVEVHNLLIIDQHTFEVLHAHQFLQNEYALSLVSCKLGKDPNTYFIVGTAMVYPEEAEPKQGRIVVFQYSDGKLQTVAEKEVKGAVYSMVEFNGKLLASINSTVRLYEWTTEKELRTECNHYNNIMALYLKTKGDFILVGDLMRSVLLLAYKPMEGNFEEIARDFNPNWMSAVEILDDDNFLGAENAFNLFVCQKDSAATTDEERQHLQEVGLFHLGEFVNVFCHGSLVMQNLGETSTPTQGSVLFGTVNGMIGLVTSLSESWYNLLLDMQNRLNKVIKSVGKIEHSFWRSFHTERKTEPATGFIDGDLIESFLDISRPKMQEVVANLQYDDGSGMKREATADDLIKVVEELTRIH
# testSummary: Neosubstrate IKZF1 degradation, western blot of MM.1S cells;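 note: test concentration 0.1 µM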
# Type: cell-based
# appliedConditions: MM1.S, 16 h, normalized to DMSO (100%), read-out: D IKZF1: remaining IKZF1 levels
reportedEndpoint: remaining activity at 0.1 µM (%)

Record excerpt, results attached:
[[record]]
compound = "CC(=O)c1c(C)c2cnc(Nc3ccc(N4CCN(C(=O)COCCOCCNc5cccc6c5C(=O)N(C5CCC(=O)NC5=O)C6=O)CC4)cn3)nc2n(C2CCCC2)c1=O (stereo not drawn)"
targetentity = "IKZF1 (Homo sapiens, UniProt Q13422+Q96SW2)"
reportedendpoint = "remaining activity at 0.1 µM"
endpointvalue = 0.8

[[record]]
compound = "CC(=O)c1c(C)c2cnc(Nc3ccc(N4CCN(C(=O)CCCCCOCCCCOCCCCOCCCCOCCCCCCNc5cccc6c5C(=O)N(C5CCC(=O)NC5=O)C6=O)CC4)cn3)nc2n(C2CCCC2)c1=O (stereo not drawn)"
targetentity = "IKZF1 (Homo sapiens, UniProt Q13422+Q96SW2)"
reportedendpoint = "remaining activity at 0.1 µM"
endpointvalue = 35

[[record]]
compound = "CC(=O)c1c(C)c2cnc(Nc3ccc(N4CCN(C(=O)CCC(=O)NCCCOCCCCOCCCNc5cccc6c5C(=O)N(C5CCC(=O)NC5=O)C6=O)CC4)cn3)nc2n(C2CCCC2)c1=O (stereo not drawn)"
targetentity = "IKZF1 (Homo sapiens, UniProt Q13422+Q96SW2)"
reportedendpoint = "remaining activity at 0.1 µM"
endpointvalue = 56

[[record]]
compound = "CC(=O)c1c(C)c2cnc(Nc3ccc(N4CCN(CCOCCOCCOCCNC(=O)COc5cccc6c5C(=O)N(C5CCC(=O)NC5=O)C6=O)CC4)cn3)nc2n(C2CCCC2)c1=O (stereo not drawn) [8 (BSJ-03-123), BSJ-03-123, reference compound]"
targetentity = "IKZF1 (Homo sapiens, UniProt Q13422+Q96SW2)"
reportedendpoint = "remaining activity at 0.1 µM"
endpointvalue = 82

[[record]]
compound = "CC(=O)c1c(C)c2cnc(Nc3ccc(N4CCN(C(=O)CCCCCOCCCCOCCCCOCCCCNc5cccc6c5C(=O)N(C5CCC(=O)NC5=O)C6=O)CC4)cn3)nc2n(C2CCCC2)c1=O (stereo not drawn)"
targetentity = "IKZF1 (Homo sapiens, UniProt Q13422+Q96SW2)"
reportedendpoint = "remaining activity at 0.1 µM"
endpointvalue = 5.9


a: CC(=O)c1c(C)c2cnc(Nc3ccc(N4CCN(C(=O)COCCOCCOCCNc5cccc6c5C(=O)N(C5CCC(=O)NC5=O)C6=O)CC4)cn3)nc2n(C2CCCC2)c1=O (stereo not drawn)
b: CC(=O)c1c(C)c2cnc(Nc3ccc(N4CCN(C(=O)CCCCCOCCOCCOCCOCCOCCOCCCCCCNc5cccc6c5C(=O)N(C5CCC(=O)NC5=O)C6=O)CC4)cn3)nc2n(C2CCCC2)c1=O (stereo not drawn)
Challenge: Consider a and b . Which of these has its remaining activity at 0.1 µM at a higher number? Your answer should be the label of the entry you select.
Response given: b

a: CC(=O)c1c(C)c2cnc(Nc3ccc(N4CCN(C(=O)CCCCCNc5cccc6c5C(=O)N(C5CCC(=O)NC5=O)C6=O)CC4)cn3)nc2n(C2CCCC2)c1=O (stereo not drawn)
b: CC(=O)c1c(C)c2cnc(Nc3ccc(N4CCN(C(=O)CCCCCNc5cccc6c5C(=O)N(C5CCC(=O)N(C)C5=O)C6=O)CC4)cn3)nc2n(C2CCCC2)c1=O (stereo not drawn)
Challenge: Record comparison, field remaining activity at 0.1 µM: mark the lower of a and b . Your answer should be the label of the entry you select.
Response given: a
(a: 1%, b: 93%)
